Molecular target: T1, GST-human NOGO-A56 (human, UniProt Q9NQC3 586-785)
T1 construct: GST-tagged fusion expressed in E. coli BL21 from pGEX-6P1; also called hNOGO; human NOGO 5+6 GST; not shown: Glutathione S-transferase tag encoded by vector pGEX-6P1 (N-terminal, with vector linker)
T1 sequence: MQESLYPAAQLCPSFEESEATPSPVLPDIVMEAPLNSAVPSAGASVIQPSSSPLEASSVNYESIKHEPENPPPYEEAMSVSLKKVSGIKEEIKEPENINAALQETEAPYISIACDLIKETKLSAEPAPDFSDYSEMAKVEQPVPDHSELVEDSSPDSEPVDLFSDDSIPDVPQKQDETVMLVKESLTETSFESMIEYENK
Assay: SPR (Biacore), GST-human NOGO-A56 immobilised, purified antibody as analyte; single experiment
observable: Kd (nM)
Express the result in nM but write the number alone.

Reference set, count: 2
binder | units | Kd
H22L16 (antibody, human IgG1, kappa, V domains shown, human gamma1 mutated constant region, human kappa) VH: QVQLVQSGAEVKKPGASVKVSCKASGYTFTSYWMHWVKQRPGQGLEWIGNINPSNGGTNYNEKFKSKATMTRDTSTSTAYMELSSLRSEDTAVYYCELGQGYWGQGTLVTVSS VL: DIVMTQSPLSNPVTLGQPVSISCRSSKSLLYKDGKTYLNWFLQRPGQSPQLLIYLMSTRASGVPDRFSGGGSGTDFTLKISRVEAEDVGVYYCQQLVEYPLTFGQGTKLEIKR | nM | 1.32
H23L16 (antibody, human IgG1, kappa, V domains shown, human gamma1 mutated constant region, human kappa) VH: QVQLVQSGAEVKKPGASVKVSCKASGYTFTSYWMHWVKQRPGQGLEWIGNINPSNGGTNYNEKFKSKATMTVDTSTSTAYMELSSLRSEDTAVYYCELGQGYWGQGTLVTVSS VL: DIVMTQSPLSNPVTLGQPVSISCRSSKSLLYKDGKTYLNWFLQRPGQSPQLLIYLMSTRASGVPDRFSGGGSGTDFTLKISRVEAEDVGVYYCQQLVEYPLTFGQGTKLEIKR | nM | 1.99

Q: Give Kd for the following binder: H1L11 (antibody, human IgG1, kappa, V domains shown) VH: QVQLVQSGAEVKKPGASVKVSCKASGYTFTSYWMHWVRQAPGQGLEWMGNINPSNGGTNYNEKFKSRVTMTRDTSTSTVYMELSSLRSEDTAVYYCELGQGYWGQGTLVTVSS VL: DIVITQSPLSLPVTLGQPASISCRSSKSLLYKDGKTYLNWFQQRPGQSPQLLIYLMSTRASGVPDRFSGGGSGTDFTLKISRVEAEDVGVYYCQQLVEYPLTFGQGTKLEIKR
Ans: 21
